- target.entity: Muscarinic acetylcholine receptor M3 (Cavia porcellus)
- measurement.conditions: Urine
- Description: Urinary bladder contraction ability in guinea pig by intravenous dose
reported.endpoint: log10 of ID50 (log10 of the value in mg/kg)
Scale type: logarithmic (base 10). Underlying ID50 unit: mg/kg.

Worked examples, 5 molecules total:
CCc1nccn1C[C@H]1CC(c2ccccc2)(c2ccccc2)C(=O)O1; 0.11
C[N+](C)(C)CC1CC(c2ccccc2)(c2ccccc2)C(=O)O1 (configuration not stated); -0.19
CC(C)c1n(CC2CC(c3ccccc3)(c3ccccc3)C(=O)O2)cc[n+]1C (configuration not stated); -1.52
CCc1n(CC2CC(c3ccccc3)(c3ccccc3)C(=O)O2)cc[n+]1C (configuration not stated); -0.57
Cc1ccc[n+]2ccn(CC3CC(c4ccccc4)(c4ccccc4)C(=O)O3)c12 (configuration not stated); 0.23

Query :: Please list log10 of ID50 recorded for the molecule CCN(CC)CC1CC(c2ccccc2)(c2ccccc2)C(=O)O1 (configuration not stated)
Result :: 1.21

----------
- target.entity: Muscarinic acetylcholine receptor M3 (Cavia porcellus)
- measurement.conditions: Urinary bladder
- Description: The compound was tested for urinary bladder contraction ability in guinea pig.
reported.endpoint: ID50
Reply with a number, then the unit it belongs to.

Worked examples, 4 compounds total:
O=C1OC(Cn2cc[n+]3ccccc23)CC1(c1ccccc1)c1ccccc1 (stereo not given); 5.2 mg/kg
CN1[C@@H]2CC[C@H]1C[C@@H](OC(=O)C(CO)c1ccccc1)C2 (stereo not given in full); 0.15 mg/kg
CC(C)c1nccn1CC1CC(c2ccccc2)(c2ccccc2)C(=O)O1 (stereo in doubt; 44); 30 mg/kg
CC(C)c1nccn1C[C@H]1CC(c2ccccc2)(c2ccccc2)C(=O)O1; 1.9 mg/kg

Query :: Please list ID50 recorded for the compound CC1CCC[n+]2ccn(CC3CC(c4ccccc4)(c4ccccc4)C(=O)O3)c21 (stereo not given)
Result :: 0.045 mg/kg

Attribution: ChEMBL document CHEMBL1126261
